The values you see were collected from PubChem BioAssay AID2060909.

- Test system: 362531-283-R-J2-PDC complex spheroid viability;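 note: spheroids exposed to the agents for 7 days before readout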
- method: Anticancer human tumor 362531-283-R-J2-PDC patient-derived colon adenocarcinoma cell line growth inhibition [RAS]
- test.parameters: curve of first compound; second compound 0.000949 µM
Consider the following compounds and their measured IC50 readings.

[
  {
    "compound": "CC(Nc1ccc2c(c1)OCCn1cc(N3C(=O)OCC3C(F)F)nc1-2)C(N)=O (stereo unspecified) + CCn1c(-c2cc(N3CCN(C)CC3)cnc2C(C)OC)c2c3cc(ccc31)-c1csc(n1)CC(NC(=O)C1CC1C)C(=O)N1CCCC(N1)C(=O)OCC(C)(C)C2",
    "IC50": "1290 nM"
  },
  {
    "compound": "CC(C)n1nc(-c2ccc3oc(N)nc3c2)c2c(N)ncnc21 + CCn1c(-c2cc(N3CCN(C)CC3)cnc2C(C)OC)c2c3cc(ccc31)-c1csc(n1)CC(NC(=O)C1CC1C)C(=O)N1CCCC(N1)C(=O)OCC(C)(C)C2",
    "IC50": "62.7 nM"
  },
  {
    "compound": "C[C@@H](NC(=O)c1ncnc(N)c1Cl)c1ncc(C(=O)Nc2cc(C(F)(F)F)c(Cl)cn2)s1 + CCn1c(-c2cc(N3CCN(C)CC3)cnc2C(C)OC)c2c3cc(ccc31)-c1csc(n1)CC(NC(=O)C1CC1C)C(=O)N1CCCC(N1)C(=O)OCC(C)(C)C2",
    "IC50": "> 10000 nM"
  }
]

Request: Item: C=CC(=O)N1CCN(c2nc(OCC3CCCN3C)nc3c(F)c(-c4nc(N)cc(C)c4C(F)(F)F)c(Cl)cc23)C(C)C1 (stereo unspecified) + CCn1c(-c2cc(N3CCN(C)CC3)cnc2C(C)OC)c2c3cc(ccc31)-c1csc(n1)CC(NC(=O)C1CC1C)C(=O)N1CCCC(N1)C(=O)OCC(C)(C)C2 Test system: 362531-283-R-J2-PDC complex spheroid viability Read-out: IC50 Value: ?;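 note: spheroids exposed to the agents for 7 days before readout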
Response: > 1000 nM

Request: Continue with CC(C)NCC(C(=O)N1CCN(c2ncnc3c2C(C)CC3O)CC1)c1ccc(Cl)cc1 (stereo unspecified) + CCn1c(-c2cc(N3CCN(C)CC3)cnc2C(C)OC)c2c3cc(ccc31)-c1csc(n1)CC(NC(=O)C1CC1C)C(=O)N1CCCC(N1)C(=O)OCC(C)(C)C2
Response: > 10000 nM

Request: Continue with CC1(O)CCCC1n1c(=O)c(C(F)F)cc2cnc(NC3CCN(S(C)(=O)=O)CC3)nc21 (stereo unspecified) + CCn1c(-c2cc(N3CCN(C)CC3)cnc2C(C)OC)c2c3cc(ccc31)-c1csc(n1)CC(NC(=O)C1CC1C)C(=O)N1CCCC(N1)C(=O)OCC(C)(C)C2
Response: 5440 nM
